Data origin: ChEMBL document CHEMBL1149805

Tested on: Escherichia coli
assayOverview: Antibacterial activity against Escherichia coli after 24 hrs by broth microdilution method
Format: functional, organism-based
Active and inactive are the calls of the source. How the calls were made is not given here.
readoutKind: Activity

Below, 8 compounds whose answers are already recorded.
>  <compoundStructureString>
CCCCCCOc1ccc2[nH]c(-c3ccc(OC)cc3)c(C3=C(Br)C(=O)NC3=O)c2c1

>  <targetOrSystem>
Escherichia coli

>  <Activity>
inactive

$$$$
>  <compoundStructureString>
CCc1ccc2[nH]c(-c3cccc(OC)c3)c(C3=C(Br)C(=O)NC3=O)c2c1

>  <targetOrSystem>
Escherichia coli

>  <Activity>
inactive

$$$$
>  <compoundStructureString>
CCCCCCOc1ccc2[nH]c(-c3ccccc3)c(C3=C(Br)C(=O)NC3=O)c2c1

>  <targetOrSystem>
Escherichia coli

>  <Activity>
inactive

$$$$
>  <compoundStructureString>
CCCCCCc1cccc2c(C3=C(Br)C(=O)NC3=O)c(-c3ccc(OC)cc3)[nH]c12

>  <targetOrSystem>
Escherichia coli

>  <Activity>
inactive

$$$$
>  <compoundStructureString>
O=C1NC(=O)C(c2c(-c3ccc(OCc4cccc5ccccc45)cc3)[nH]c3ccccc23)=C1Br

>  <targetOrSystem>
Escherichia coli

>  <Activity>
inactive

$$$$
>  <compoundStructureString>
CCc1ccc2[nH]c(-c3ccc(OC)cc3)c(C3=C(Br)C(=O)NC3=O)c2c1

>  <targetOrSystem>
Escherichia coli

>  <Activity>
inactive

$$$$
>  <compoundStructureString>
COc1cccc(-c2[nH]c3ccc(OC)cc3c2C2=C(Br)C(=O)NC2=O)c1

>  <targetOrSystem>
Escherichia coli

>  <Activity>
inactive

$$$$
>  <compoundStructureString>
O=C1NC(=O)C(c2c(-c3ccc(OCc4ccccc4)cc3)[nH]c3ccccc23)=C1Br

>  <targetOrSystem>
Escherichia coli

>  <Activity>
inactive

$$$$

// moving on: another record for Activity
// Activity value for CCc1ccc2[nH]c(-c3ccccc3)c(C3=C(Br)C(=O)NC3=O)c2c1 : inactive
